Please provide measured protein stability index for the entries that follow.
# Procedure text: protein stability index of a GFP-peptide fusion (yeast GPS) (PSI 1-4); higher = more stable; sorted into four equal gates, so the index is relative within each strain
# Recorded conditions: doa10∆

biopolymer_sequence="KSSELELQKLVHDLNKY [SMC2]" val=3.22
biopolymer_sequence="LPRELPKLLDALNKISK [SNU114]" val=2.65
biopolymer_sequence="KALPMLEQVEFEKNTIL [MED4]" val=3.02

Field: protein stability index. Fill in for each record below.
1. YGAYNTQIANAGASPMV [PRE4]
2. GMYALRERRIHVTQEDF [RPT6]
3. MAKRVADAQIQRETYDS [YLR335W/NUP2]
4. LDDNSTSLEKQINSIKK [YJL041W/NSP1]

1: 2.16; 2: 1.81; 3: 2.21; 4: 2.74

====

# Procedure text: protein stability index of a GFP-peptide fusion (yeast GPS) (PSI 1-4); higher = more stable; sorted into four equal gates, so the index is relative within each strain
# Recorded conditions: doa10∆
Please provide measured protein stability index for the entries that follow.

biopolymer_sequence="SEVRKAVSIETALEHKV [FAS2]" readout_name="protein stability index" val=1.67
biopolymer_sequence="EKPQFKDGETTDANGKT [RPO26]" readout_name="protein stability index" val=3.36
biopolymer_sequence="LRIELQSVYNDEKLKTE [SRB8]" readout_name="protein stability index" val=3.17
biopolymer_sequence="INDKRANLMLVMLRLLL [SRB4]" readout_name="protein stability index" val=1.6
biopolymer_sequence="SKMLDAASSQVSIVKLD [SNF12]" readout_name="protein stability index" val=2.89

Field: protein stability index. Fill in for each record below.
1. EVFQLRIFVKEILEKCA [GAL11]
2. GCKNGSFTLLNQLSQTN [NUT1]
3. LQGEVENIAQMKPKAEK [SMC4]
4. SDINQNDDSSSMNATMR [YDL088C/ASM4]
5. GAASNRTKFVRSLVREI [RPL36A]
6. SEGSGSSLVQKGLETID [RPC53]
7. WAGKRLWDQDIAIAGTG [COR1]

2.29
2.86
3.02
2.88
3.22
3.35
3.25

====

# Procedure text: protein stability index of a GFP-peptide fusion (yeast GPS) (PSI 1-4); higher = more stable; sorted into four equal gates, so the index is relative within each strain
# Recorded conditions: doa10∆
Would you please tag the item class 1 when its protein stability index is 3 or above, and class 0 when it is below?

// below: answered sequences
biopolymer_sequence="LSEAWRCWKANIPWDVP [PRP8]" category_label="class 0"
biopolymer_sequence="ADQEQAKLIRSAIEHTT [RPO21]" category_label="class 1"
biopolymer_sequence="LHKFLTKWGLINYQVDS [SWI3]" category_label="class 0"

Textbook exercise: given the entry LISGPRNQILVSITDAP [YMR129W/POM152] , state whether its protein stability index is greater than or equal to 3.
class 0

Textbook exercise: given the entry DPALLRPGRIDRKIEFP [RPT6] , state whether its protein stability index is greater than or equal to 3.
class 1

Textbook exercise: given the entry DEIHIPAPSKPVIDYEL [BRR2] , state whether its protein stability index is greater than or equal to 3.
class 1

====

# Procedure text: protein stability index of a GFP-peptide fusion (yeast GPS) (PSI 1-4); higher = more stable; sorted into four equal gates, so the index is relative within each strain
# Recorded conditions: pdr5∆
Please provide measured protein stability index for the entries that follow.
One number for each entry.

Field: protein stability index. Fill in for each record below.
1. SLVEVVFYRGMTMQVAV [FAS1]
2. NQKIPDNVIVINHKINN [SIR3]
3. HLILDKLNQKYDIVKFL [GRR1]
4. RGPRNSREAVRHFGMGP [RPL18A]
5. VTHDCYRVTLESILQMN [RPC34]
6. RHLRRTGKVSEFISIYS [RET1]
7. PSEFHCLQDALDAIDDF [SSN2]
8. LMTSHTKGDTSKATGAP [RTT102]

[1.88, 2.03, 1.66, 2.86, 2.39, 2.05, 3.16, 3.34]
